Parameter: Emax. Scope: all listed entries.
- Tgt: M4 muscarinic receptor (Homo sapiens, UniProt P08173)
- Construct: expressed in transfected cells; host or cells: CHO (M4-CHO)
- Sequence (P08173 whole entry): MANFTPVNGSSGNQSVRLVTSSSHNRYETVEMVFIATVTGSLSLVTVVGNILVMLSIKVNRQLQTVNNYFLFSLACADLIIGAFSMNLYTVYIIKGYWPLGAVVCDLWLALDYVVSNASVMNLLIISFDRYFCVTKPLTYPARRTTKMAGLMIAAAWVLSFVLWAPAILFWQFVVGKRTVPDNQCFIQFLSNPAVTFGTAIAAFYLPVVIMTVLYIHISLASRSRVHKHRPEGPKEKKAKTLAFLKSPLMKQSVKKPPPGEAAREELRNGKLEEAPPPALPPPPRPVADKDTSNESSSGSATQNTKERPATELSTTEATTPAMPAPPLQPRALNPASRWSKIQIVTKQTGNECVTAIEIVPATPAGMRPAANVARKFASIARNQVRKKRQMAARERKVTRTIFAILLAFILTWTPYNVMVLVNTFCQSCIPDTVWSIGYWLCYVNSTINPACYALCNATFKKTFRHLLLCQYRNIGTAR
- Method summary: Functional mobilization of intracellular calcium (FLIPR), M4-CHO cells
- Format: cell-based
- Details: 100% efficacy = maximum response obtained with the Carbachol control

Field: example entries. Status: answers known.
COc1ccccc1C1CCN(C2CCC3CCCCC3C2)CC1 (stereo not drawn) [Compound 255] ... 25 to 100%
COc1ccc(-c2ccoc2)cc1C1CCN([C@@H]2C[C@H]3CC[C@H]2C3)CC1 [Compound 237] ... 25 to 100%
COc1ccccc1C1(C#N)CCN(C2CCCCC2)CC1 [Compound 348] ... 25 to 100%
CNC(=O)c1ccc(-c2ccc(OC)c(C3CCN(C4CCCCC4)CC3)c2)cc1Cl [Compound 353] ... 25 to 100%
CNC(=O)c1ccc(-c2ccc(OC)c(C3CCN(C4CCOCC4)CC3)c2)cc1 [Compound 285] ... < 25%
COc1ccc(-c2ccc(CC#N)cc2)cc1C1CCN(C2CCOCC2)CC1 [Compound 263] ... < 25%

Emax recorded for this compound, COc1ccccc1C1CCN(C2CCC(C(C)C)CC2)CC1 (stereo not drawn) [Compound 155] , is < 25%

Emax recorded for this compound, COc1ccc(Cl)cc1C1CCN(CC2CCCCC2)CC1 [Compound 91] , is 25 to 100%

Emax recorded for this compound, COc1ccccc1C1(O)CCN(C2CC3CCC2C3)CC1 (stereo not drawn) [Compound 25] , is < 25%

Emax recorded for this compound, CCOC(=O)N1C2CCC1CC(N1CCC(c3ccc(F)cc3OC)CC1)C2 (stereo not drawn) [Compound 179] , is 25 to 100%

Emax recorded for this compound, COc1ccccc1C1CCN(C2CCCC2)CC1 [Compound 15] , is 25 to 100%

Emax recorded for this compound, COC(=O)CC1CCCC(N2CCC(c3ccccc3OC)CC2)C1 (stereo not drawn) [Compound 238] , is 25 to 100%

Emax recorded for this compound, COc1ccccc1C1CCN(CC2CCOC2)CC1 (stereo not drawn) [Compound 369] , is 25 to 100%

Emax recorded for this compound, OC1(c2ccc(F)cc2F)CCN(C2C[C@H]3CC[C@H]2C3)CC1 (stereo partly drawn) [Compound 41] , is < 25%
